# System: MT2
# measurement-conditions: human
# Description: Cytotoxicity against human MT2 cells by XTT assay
value-kind: CC50 (µM)
Please respond with the number in µM and leave the unit unwritten.

Tell me the measured CC50 of `C=C(COCCC)[C@@H]1CC[C@]2(C(=O)N[C@@H](CC(C)C)C(=O)O)CC[C@]3(C)[C@H](CC[C@@H]4[C@@]5(C)CC[C@H](O)C(C)(C)[C@@H]5CC[C@]43C)[C@@H]12` , please.
25.3

Bench note: what CC50 did `C=C(COCCN1CCOCC1)[C@@H]1CC[C@]2(C(=O)NCCCCCCCC(=O)O)CC[C@]3(C)[C@H](CC[C@@H]4[C@@]5(C)CC[C@H](O)C(C)(C)[C@@H]5CC[C@]43C)[C@@H]12` show?
24.8

Would you kindly share the measured CC50 for `C=C(CBr)[C@@H]1CC[C@]2(C(=O)N[C@@H](CC(C)C)C(=O)O)CC[C@]3(C)[C@H](CC[C@@H]4[C@@]5(C)CC[C@H](OC(=O)CC(C)(C)C(=O)O)C(C)(C)[C@@H]5CC[C@]43C)[C@@H]12` ?
33.2

Entry `C=C(C)[C@@H]1CC[C@]2(C(=O)N3CCC(CCCC(=O)NCCCN4CCOCC4)CC3)CC[C@]3(C)[C@H](CC[C@@H]4[C@@]5(C)CC[C@H](OC(=O)CC(C)(C)C(=O)O)C(C)(C)[C@@H]5CC[C@]43C)[C@@H]12` has what CC50?
18.5

---

# protocol-details: Metabolic stability in human liver microsomes assessed as drug remaining at 1 mg/mL after 120 mins by HPLC
# Format: ADME, Microsome
# measurement-conditions: read-out: Stability
Hi there, I'd appreciate the recorded remaining at 2 h, 1 mg/mL for every entry that follows.
All answers are understood in %, so give the number only.

Record request: remaining at 2 h, 1 mg/mL value, item `C=C(C)[C@@H]1CC[C@]2(C(=O)N3CCC(CCCC(=O)O)CC3)CC[C@]3(C)[C@H](CC[C@@H]4[C@@]5(C)CC[C@H](O)C(C)(C)[C@@H]5CC[C@]43C)[C@@H]12`
53.8

What value of remaining at 2 h, 1 mg/mL has been reported for the following compound? `C=C(C)[C@@H]1CC[C@]2(C(=O)NCCCCCCCC(=O)O)CC[C@]3(C)[C@H](CC[C@@H]4[C@@]5(C)CC[C@H](O)C(C)(C)[C@@H]5CC[C@]43C)[C@@H]12`
7.9

---

# protocol-details: Therapeutic index, ratio of CC50 for human MT2 cells to EC50 for HIV1 3B
# Assay type: cell-based
# measurement-conditions: read-out: TI
For each record, check the reported selectivity ratio: if it is below 2000 write Condition met, else write Condition not met.

For `C=C(C)[C@@H]1CC[C@]2(C(=O)N[C@@H](CC(C)C)C(=O)O)CC[C@]3(C)[C@H](CC[C@@H]4[C@@]5(C)CC[C@H](NC(=O)CC(C)(C)C(=O)O)C(C)(C)[C@@H]5CC[C@]43C)[C@@H]12` , is the recorded selectivity ratio below the cut-off of 2000?
Condition met

Check if selectivity ratio falls below 2000 for `C=C(CO)[C@@H]1CC[C@]2(C(=O)NCCCCCCCC(=O)O)CC[C@]3(C)[C@H](CC[C@@H]4[C@@]5(C)CC[C@H](O)C(C)(C)[C@@H]5CC[C@]43C)[C@@H]12` .
Condition met

selectivity ratio strictly < 2000 for this compound? `C=C(C)[C@@H]1CC[C@]2(C(=O)N3CCC(CCCC(=O)NCCN4CCOCC4)CC3)CC[C@]3(C)[C@H](CC[C@@H]4[C@@]5(C)CC[C@H](OC(=O)CC(C)(C)C(=O)O)C(C)(C)[C@@H]5CC[C@]43C)[C@@H]12`
Condition not met

Check if selectivity ratio falls below 2000 for `C=C(CBr)[C@@H]1CC[C@]2(C(=O)N[C@@H](CC(C)C)C(=O)O)CC[C@]3(C)[C@H](CC[C@@H]4[C@@]5(C)CC[C@H](OC(=O)CC(C)(C)C(=O)O)C(C)(C)[C@@H]5CC[C@]43C)[C@@H]12` .
Condition not met

Please determine if `C=C(C)[C@@H]1CC[C@]2(C(=O)N3CCC(CCCC(=O)N4CCOCC4)CC3)CC[C@]3(C)[C@H](CC[C@@H]4[C@@]5(C)CC[C@H](OC(=O)CC(C)(C)C(=O)O)C(C)(C)[C@@H]5CC[C@]43C)[C@@H]12` is below 2000 in terms of selectivity ratio.
Condition met

In the record for `C=C(COCCN1CCOCC1)[C@@H]1CC[C@]2(C(=O)NCCCCCCCC(=O)O)CC[C@]3(C)[C@H](CC[C@@H]4[C@@]5(C)CC[C@H](O)C(C)(C)[C@@H]5CC[C@]43C)[C@@H]12` , is selectivity ratio less than 2000?
Condition met

Consider `C=C(COCCN1CCOCC1)[C@@H]1CC[C@]2(C(=O)N[C@@H](CC(C)C)C(=O)O)CC[C@]3(C)[C@H](CC[C@@H]4[C@@]5(C)CC[C@H](O)C(C)(C)[C@@H]5CC[C@]43C)[C@@H]12` . Does its selectivity ratio lie strictly below 2000?
Condition met

selectivity ratio under 2000? Item: `C=C(C)[C@@H]1CC[C@]2(C(=O)N3CCC(CCCC(=O)O)CC3)CC[C@]3(C)[C@H](CC[C@@H]4[C@@]5(C)CC[C@H](O)C(C)(C)[C@@H]5CC[C@]43C)[C@@H]12`
Condition met

Lab note: selectivity ratio threshold 2000. Does this compound come in strictly under it? `C=C(C)[C@@H]1CC[C@]2(C(=O)N3CCC(CCCC(=O)NC)CC3)CC[C@]3(C)[C@H](CC[C@@H]4[C@@]5(C)CC[C@H](OC(=O)CC(C)(C)C(=O)O)C(C)(C)[C@@H]5CC[C@]43C)[C@@H]12`
Condition met
